system: expanded OPCs; test: cells; details: alamarBlue viability of expanded OPCs, compound at 0.1 µM, relative to DMSO control
observation-type: 0.1 µM (% DMSO)
Numbers only; they are read as % DMSO.

1. CCN(CC)CCOC(=O)C1(C2CCCCC2)CCCCC1 : 99.8
2. COc1cc(C)c(/C=C/C(C)=C/C=C/C(C)=C/C(=O)O)c(C)c1C : 101.2
3. N[C@@H]1CON=C1O : 89.7
4. COc1ccc(OC)c(C(O)CNC(=O)CN)c1 (centres unmarked) : 90.8
5. CNCCCN1c2ccccc2CCc2ccccc21 : 75.5
6. CCCc1cc(=O)[nH]c(=S)[nH]1 : 90.3

Query string: API: value(readout= 0.1 µM (% DMSO), system= expanded OPCs, query= C[C@]12C=CC(=O)C=C1CC[C@@H]1[C@@H]2[C@@H](O)C[C@@]2(C)[C@H]1CC[C@]2(O)C(=O)CO )
Result string: 117.5

Query string: Value wanted: 0.1 µM (% DMSO) (expanded OPCs) of entry CN(C)C(=O)C(CCN1CCC(O)(c2ccc(Cl)cc2)CC1)(c1ccccc1)c1ccccc1 [Loperamide]
Result string: 70.2

Query string: API: value(readout=0.1 µM (% DMSO), system=expanded OPCs) for record NS(=O)(=O)c1cc2c(cc1C(F)(F)F)NCNS2(=O)=O [Hydroflumethiazide]
Result string: 104.6

Query string: Provide the documented 0.1 µM (% DMSO) with expanded OPCs as the system for CC[C@H](C)C(=O)O[C@H]1C[C@@H](C)C=C2C=C[C@H](C)[C@H](CC[C@@H]3C[C@@H](O)CC(=O)O3)[C@H]21
Result string: 147.6

Query string: Given the entry CC(=O)OCC(=O)[C@@]12OC(C)(C)O[C@@H]1C[C@H]1[C@@H]3C[C@H](F)C4=CC(=O)C=C[C@]4(C)[C@@]3(F)[C@@H](O)C[C@@]12C [Fluocinonide] , what 0.1 µM (% DMSO) was observed with expanded OPCs?
Result string: 108.3
